- study_target: recombinant SARS-CoV-2 WT (Wuhan-1) RBD
- test_details: BLI
recorded_endpoint: Kd (nM)
Numbers only here, please. The scale is nM.

# example entries with known answers
ADI-75738 (antibody, V domains shown) VH: QVQLQQWGAGLLKPSETLSLTCGVHDGAFSGYFWNWIRQSPVKGLEWIGEVTHSGNTNYNPSLKSRVTMSVDASKNEFSLNLTSVTAADTAVYYCARGDFYSTRLAFDVWGQGSMVTVSS VL: EIVLTQSPATLSLSPGERATLSCRASQSVSTYLAWYQQRPGQAPRLLIYDASNRATGIPARFSGSGSETDFTLTISSLEPEDFAVYYCQQRSNWLTFGGGTKVEIK | 0.26
ADI-75754 (antibody, V domains shown) VH: QVQLVQSGGDLVQPGGSLRLSCVASGFTFSNYEMNWVRQGPGKGLEWISYISTSGSTYYYADSVKGRFTISRDNARNSLYLQMDSLRVEDTAIYYCLTHPQPQYVRPTQVVWFDPWGQGTLVTVSS VL: EMTMTQSPGTLSLSPGERATLSCRASESVSSEYLAWHQQRPGQAPRLLIYGASSRPTGIPDRFSGSGSGTDFTLTISRLEPEDFAVYYCHQFASAPITFGQGTRLEIK | 3.58
ADI-75859 (antibody, V domains shown) VH: QVQLVQSGGGVGQPGRSLRLSCAASGFTFGHYGMHWVRQAPGKGLEWVAAIIYDGSDKQYADSVKGRFTISRDNSKNTVYLQMNSLRPEDTAIYFCAKLGGLYCSGGNCFSGYFDYWGQGTLVTVSS VL: ETTLTQSPSSLSASVGDRVTITCRASQGISNSLAWYQQKPGKAPKLLLYAASTLESGVPSRFSGSGSGTDFTLTIASLQPEDFATYYCQQYYSSVRFTFGQGTILDLN | 0.36

Would you kindly look at the next entry?
Q: Return reported Kd; argument: ADI-75700 (antibody, V domains shown) VH: QVQLQQWGAGLLKPSETLSLTCGVYDGSFSDYFWNWIRQPPGKGLEWIGELTHTGSTNYNPSLKSRVTILADTSKSQFSLNLSSVTAADTAVYYCARGDFYSTRLAFDLWGQGTTVTVSS VL: EIALTQSPATLSLSPGERATLSCRASQSVSTYLAWYQQKPGQAPRLLIYDASKRATGIPARFNGSGSGTDFTLTISSLEPEDFAVYYCQQRSTWPTFGGGTKVDIK
A: 0.24
